Taken from paper PMC11062899.

The compounds listed here are annotated with their Residual thrombin activity: Equilibrated sample.
- target-or-system: human α-thrombin (Homo sapiens, UniProt P00734)
- assay-text: Sub-library screen for active and permeable cyclic peptides (PAMPA plus thrombin inhibition)
- Type: biochemical
- condition-parameters: donor sample diluted to theoretical equilibrium (1 μM in assay); crude; slopes normalized to DMSO
Please state the value as a number alone, without comment.

| smiles-code | observed |
| --- | --- |
| Cc1cccc(C[C@@H]2NC(=O)[C@@H](NC(=O)c3ccc(Cl)s3)CCSCC(=O)CSCCNC(=O)C[C@H]3CCCN3C2=O)c1 | 83.6 |
| N#Cc1ccc(C[C@@H]2NC(=O)[C@@H](NC(=O)c3ccc(Cl)s3)CCCSC/C=C/CSCCNC(=O)C[C@H]3CCCN3C2=O)cc1 | 97.2 |
| COc1ccc(C[C@@H]2NC(=O)[C@@H](NC(=O)c3ccc(Cl)s3)CSCc3cccc(c3)CSCCNC(=O)C[C@H]3CCCN3C2=O)cc1 | 99.3 |
| O=C1C[C@H]2CCCN2C(=O)[C@H](Cc2ccccc2)NC(=O)[C@@H](NC(=O)c2ccc(Cl)s2)CSCc2ccccc2CSCCN1 | 60.8 |
| O=C1C[C@H]2CCCN2C(=O)[C@H](Cc2ccc(C(F)(F)F)cc2)NC(=O)[C@@H](NC(=O)c2ccc(Cl)s2)CSCCS(=O)(=O)CCSCCN1 | 102.5 |

GET /value?item= O=C1C[C@H]2CCCN2C(=O)[C@H](Cc2ccc(Cl)cc2)NC(=O)[C@@H](NC(=O)c2ccc(Cl)s2)CSCc2cccc(n2)CSCCN1 &field=Residual thrombin activity: Equilibrated sample returns 92.0

Looking up O=C1CSCCNC(=O)C[C@H]2CCCN2C(=O)[C@H](Cc2ccc(C(F)(F)F)cc2)NC(=O)[C@@H](NC(=O)c2ccc(Cl)s2)CSC1 , I found its Residual thrombin activity: Equilibrated sample recorded as 99.5

Documented Residual thrombin activity: Equilibrated sample of CN1C(=O)[C@@H](NC(=O)c2ccc(Cl)s2)CSCc2ccc(cc2)CSCCNC(=O)C[C@H]2CCCN2C(=O)[C@@H]1Cc1ccccc1 : 94.0

The recorded Residual thrombin activity: Equilibrated sample for CN1C(=O)[C@@H](NC(=O)c2ccc(Cl)s2)CCSCC(=O)CSCCNC(=O)C[C@H]2CCCN2C(=O)[C@@H]1Cc1ccccc1 is 101.7

Measured Residual thrombin activity: Equilibrated sample of COc1ccc(C[C@@H]2NC(=O)[C@@H](NC(=O)c3ccc(Cl)s3)CSCC(=O)CSCCNC(=O)C[C@H]3CCCN3C2=O)cc1 : 101.4

Value of measured Residual thrombin activity: Equilibrated sample for the entry O=C1C[C@H]2CCCN2C(=O)[C@@H](Cc2ccccc2)NC(=O)[C@@H](NC(=O)c2ccc(Cl)s2)CSCc2ccc(cc2)CSCCN1 : 95.0

Noted for CN1C(=O)[C@@H](NC(=O)c2ccc(Cl)s2)CCSCc2cccc(n2)CSCCNC(=O)C[C@H]2CCCN2C(=O)[C@@H]1Cc1ccccc1 : its Residual thrombin activity: Equilibrated sample reads 101.7
